Measured pull-down binding Z-score values are reported for all entries that follow.
# System: TO-N3 (biotin conjugate)
# assay details: pull-down binding Z-score (relative to library population); higher = stronger binding
# recorded conditions: RNA library: Library-2

polymer sequence: AGCUGUUGAACUGGGAACCUGCU [hsa-mir-31]
pull-down binding Z-score: 0.368

polymer sequence: AACACUUCCCACAGAAGUGUU
pull-down binding Z-score: 0.0543

polymer sequence: CUCUCGUGUCCACUAGCAGGCAGGUUUUCUGACACAGG [hsa-mir-604]
pull-down binding Z-score: -0.0789

polymer sequence: CUUUGUAUUGCAUAGACGGUGCUUUACUUACAAAGUCCUCAGAAUACAAAG
pull-down binding Z-score: -1.28

polymer sequence: AGUUUGUGAUAAUGUUUGUCUAUAUAGUUAUGAAUG [hsa-mir-4307]
pull-down binding Z-score: -0.633

polymer sequence: CAGGCUGCUAAACAACAGAACGAGCACUG [hsa-mir-378f]
pull-down binding Z-score: -0.0846

polymer sequence: GUGAGAGAUGCUUCUAGAUCCAGGAGGCAGACCUCAA [hsa-mir-4325]
pull-down binding Z-score: 0.822

polymer sequence: AUCUUCCUGACCUGGUAAUAAUUAGGUGAGAAGGAU [hsa-mir-8069-2_8069-1]
pull-down binding Z-score: -1.2

polymer sequence: GUCCUGCCCUCACUGGGAACCCCCUUCCCUCUGGGUACCAG [hsa-mir-1324]
pull-down binding Z-score: 1.88

polymer sequence: GGGCUGCCCGGGCCGGUCGACCAGCGCGCCGUAGCUCC [hsa-mir-6724-2_6724-3_6724-1_6724-4]
pull-down binding Z-score: 1.03

====

# Tested on: TO-3-N3 (biotin conjugate)
# assay details: pull-down binding Z-score (relative to library population); higher = stronger binding
# recorded conditions: RNA library: Library-2

polymer sequence: GGCUGUGAGCUCUAGCAAUGCCC [hsa-mir-146b]
pull-down binding Z-score: 0.251
//
polymer sequence: GUGGAGGUAGGCGAGAGUAAUAUAAUUUCUCCAGGAGAACAUCUGAGAGGGGAAGUUGCUUUCCUGCCCUGGCCCUUUCAC [hsa-mir-6076]
pull-down binding Z-score: 0.431
//
polymer sequence: UUUGCCAUUGAAAGUAAUGGCAAA [hsa-mir-548d-2]
pull-down binding Z-score: -0.691
//
polymer sequence: CCUUUAGUACCUUUCUGGAUAACAAUUGCUUAUAUCAUUUGUAUUUCCACAAAGCAUUUCUAUUGG
pull-down binding Z-score: -0.884
//
polymer sequence: GACGGUGGGGGCCACGCUGACAGCCGC [hsa-mir-6804]
pull-down binding Z-score: 2.01
//
polymer sequence: AUUAUGAGGACUUUUAAAGUUUCCAUUUGGAAUCUUGAUUACAUCAUAAACCUCAUAAU
pull-down binding Z-score: -1.1
//
polymer sequence: CCUGCCUGCCCUCCAGGUCAUGUUCCAGUGUCCCACAGAUGCAGCACCACGG [hsa-mir-6075]
pull-down binding Z-score: 0.0521
//
polymer sequence: UUACUCACCCUCUCAAAACCGAGACUCAGAGACGUUGGGUAA [hsa-mir-7973-2]
pull-down binding Z-score: -0.25
//
polymer sequence: CUUGGAAAACUUCAAG
pull-down binding Z-score: -0.101

====

# Test system: TO-N3-2 (biotin conjugate)
# assay details: pull-down binding Z-score (relative to library population); higher = stronger binding
# recorded conditions: RNA library: Library-2
Range-based classes on measured pull-down binding Z-score: range 1: < -0.5; range 2: ≥ -0.5 and < 0.2; range 3: ≥ 0.2

polymer sequence: CCAAGGCUCUGGGGUCUCACCCUUGG [hsa-mir-6842]
label: range 2
//
polymer sequence: CAGGCGGGGCAGCCCAAUGCCAUGGGCCUGAU [hsa-mir-4695]
label: range 3
//
polymer sequence: GUUUUACUAUGAUGAGGUGUGCCAUCCACCCCAUCAUAGUAAAC [hsa-mir-606]
label: range 1
//
polymer sequence: UAAUAACGCUACUAAUGUUGUUAUUA
label: range 1
//
polymer sequence: CCGGGUGCCCACAAGACUGUG [hsa-mir-3138]
label: range 3
//
polymer sequence: CUGAUUGUCAUAUGUCGUUUGUGGGAUCCG [hsa-mir-340]
label: range 3
//
polymer sequence: UUACCCAACGUCUCUGAGUCUCGGUUUUGAGAGGGUGAGUAA [hsa-mir-7973-1]
label: range 3
//
polymer sequence: GAAGAAGAAGAAGAAGAAGAAGAAGAAGAAGAAGAAGAAGAAGAAGAA [r(GAA)16]
label: range 3
//
polymer sequence: CCUCUCGGGAACUACAAGUCCCAGGGGG [hsa-mir-2861]
label: range 2
//
polymer sequence: UGUGACCUUCAAAAUUAUGGUGAUAGUGCAACAUUACCUAAAGGCAUAAUGAUGAAUGUCGCA
label: range 1
//
polymer sequence: CAAUUUGAGACCAAU [hsa-mir-1285-2]
label: range 3
//
polymer sequence: UUUUGCUGUUACUUUUAAUGGCAAAA [hsa-mir-548az]
label: range 1
//
polymer sequence: AUUGUACUGUGGUGGUUACAAU [hsa-mir-34b]
label: range 1
//
polymer sequence: GUAGAUUUUAUGUCAC [hsa-mir-892b]
label: range 2
//
polymer sequence: CCCAAACUUGGAGCACUUGACCUUUGGC [hsa-mir-4687]
label: range 3
//
polymer sequence: ACAGUCUGUACCGUCUGCGGUAUGUGGAAAGGUUAUGGCUGU
label: range 3
//
polymer sequence: UUUGGUAUUACUUUCAGUGGCAAA [hsa-mir-548j]
label: range 2
//
polymer sequence: GUUUAUUUUGUAGC [hsa-mir-4317]
label: range 1
//
polymer sequence: AGCUGGGGCCGGGU [hsa-mir-4281]
label: range 3
//
polymer sequence: UGUGCUUGUGAAAUUGUCGGUGGACAAAUUGUCACCUGUGCA
label: range 1
//
polymer sequence: UGGAUGUAAUUAUCUUGGCAAACCACGCGAACAAAUAGAUGGUUAUGUCAUGCAUGCA
label: range 2

====

# Test system: TO-N3-2 (biotin conjugate)
# assay details: pull-down binding Z-score (relative to library population); higher = stronger binding
# recorded conditions: RNA library: Library-2
Measured pull-down binding Z-score values are reported for all entries that follow.
assay metric: pull-down binding Z-score

polymer sequence: CACGCAUUUGCUUUACUUGCAAUGAUUAUA [hsa-mir-300]
numeric value: 0.472
//
polymer sequence: CCCAUAAGGGUCGAAUGGG [hsa-mir-4713]
numeric value: 0.0587
//
polymer sequence: UGGUUGAAUAUGUGAAUGGCAUCG [hsa-mir-449a]
numeric value: 0.601
//
polymer sequence: GCUGGAGUAAGGGCACGCCCGGGGCUGC [hsa-mir-4758]
numeric value: 1.79
//
polymer sequence: AUUCAGACUCAGGU [hsa-mir-921]
numeric value: -0.0427
//
polymer sequence: GAUGUUUCUGCCAGUUUAGCGUC [hsa-mir-505]
numeric value: 0.324
//
polymer sequence: ACGUCCAGUGGUGCAGAGGUAAUGGACGU [hsa-mir-1306]
numeric value: 1.37
//
polymer sequence: CAGGGGUUCUGAUAAACCCUUC [hsa-mir-6738]
numeric value: 0.161
//
polymer sequence: CCGUGCCCUGGCCACUCAUUCGG [hsa-mir-6741]
numeric value: 1.1
//
polymer sequence: AUCAGCAGAGACAUGAGGUGAUCAAAAACCUUUUUUCAAAGCAGUGGG [hsa-mir-4300]
numeric value: 0.438
//
polymer sequence: GGACCAGCCCAAAGGCCAGGCCUGACCC [hsa-mir-4780]
numeric value: 1.62
//
polymer sequence: AGGUCUCCUGGCAU [hsa-mir-4256]
numeric value: -0.096
//
polymer sequence: AUUGUUGUCGCUUCCAAGAAAAGGACGAAGAUGACAAU [DMSMaPseq_invitro_SARS-CoV-2_Motif_245]
numeric value: -0.371
//
polymer sequence: AAAGAGGUGUUUCUACUCCAU [hsa-mir-3690-1_3690-2]
numeric value: -0.235
//
polymer sequence: UCAGGUGAAUGUGUCUGG [hsa-mir-3916]
numeric value: -0.347
//
polymer sequence: UAGGUUGUGUGCUGUCCAGCCUG [hsa-mir-26b]
numeric value: 0.271
//
polymer sequence: AAGUCCGGCUCCAGAACCUGGACACCGCUCAG [hsa-mir-4638]
numeric value: 1.09
//
polymer sequence: UUUGCCAAUAAAAGUAAUGACAAA [hsa-mir-548ah]
numeric value: -0.39
//
polymer sequence: GUGUCCUGAAAUUCACAGGACUG [hsa-mir-4700]
numeric value: 0.643
//
polymer sequence: UCACAGAAUGCUGUAGCCUCAAAGAUUUUGGGACUACCAACUCAAACUGUUGA
numeric value: -0.508
//
polymer sequence: GGCGGUGAAGCUCC [hsa-mir-4532]
numeric value: 0.727
//
polymer sequence: UGCCUUGUAGCAUUCAGGUCAAGCA [hsa-mir-103a-2]
numeric value: 0.0485
//
polymer sequence: CCCGUAGGACACCGAGGCUUAUGAAUAGGA [hsa-mir-6081]
numeric value: 0.62
